Molecular target: T1, E. coli rhomboid protease GlpG (E. coli, UniProt P09391 1-276, limits assumed)
T1 construct: Enzyme of the in vitro IC50 and Ki assay (as described in Ticha et al., 2017) and of the co-crystal structures; also called model rhomboid protease GlpG
T1 sequence (looked up): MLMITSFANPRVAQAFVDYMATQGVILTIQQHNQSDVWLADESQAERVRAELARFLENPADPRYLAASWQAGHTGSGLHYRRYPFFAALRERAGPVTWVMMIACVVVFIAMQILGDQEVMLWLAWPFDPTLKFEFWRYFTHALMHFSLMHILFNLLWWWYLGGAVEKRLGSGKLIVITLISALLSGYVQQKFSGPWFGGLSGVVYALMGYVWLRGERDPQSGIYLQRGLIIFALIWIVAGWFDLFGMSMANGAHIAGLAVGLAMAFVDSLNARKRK
Assay: in vitro inhibition of rhomboid protease GlpG, as described (Ticha et al., 2017); printed as a Ki range
No end group written: not given here.
MEASUREMENT_TYPE: Ki

binder="Ac-RVRHA (also: C-terminal Ala as alpha-ketoamide, -CO-CO-NH-(CH2)2-Ph, Structure is printed only as a drawing; Tail inferred from monoisotopic mass 810.461290, MW 810.96, and the NMR; It has the same mass as compound 5; also called Cpd No. 9) [Compound 9]" result="10 to 100 nM"
binder="Ac-RVRHA (also: C-terminal Ala as alpha-ketoamide, -CO-CO-NH-(CH2)4-Ph, Structure is printed only as a drawing; Tail inferred from C39H62N14O7, MW 839.02; also called Cpd No. 11) [Compound 11]" result="10 to 100 nM"
binder="Ac-RVRHA (also: C-terminal Ala as alpha-ketoamide, -CO-CO-NH-CH2-(2,5-dimethylphenyl), Structure is printed only as a drawing; Tail inferred from C38H60N14O7, MW 824.99; also called Cpd No. 10) [Compound 10]" result="10 to 100 nM"

# credit: patent US20200095278A1
